Measured IC50, listed per entry.
# studySystem: EHMT2 (Homo sapiens, UniProt Q96KQ7)
# Construct: endogenous in cells; host or cells: MDA-MB-231 (ATCC)
# assayProcedure: MDA-MB-231 H3K9me2 in-cell Western assay (EHMT2 ICW)
# Type: cell-based
# conditionLabel: MDA-MB-231 cells, H3K9me2 in-cell Western; read-out: EHMT2 ICW (IC50 μM)

# annotated cases, reported IC50 shown
INSERT INTO results (compound, assayvalue) VALUES
  ('COc1cc2c(cc1OCCCN1CCCC1)nc(N)n2CC1CCOCC1 [Compound 18]', '1 to 10 µM'),
  ('COc1cc2c(cc1OCCCN1CCCC1)nc(N)n2CC(F)(F)F [Compound 11]', '1 to 10 µM'),
  ('COc1cc2c(cc1OCCCN1CCCC1)nc(C)n2C [Compound 21]', '> 10 µM'),
  ('COc1cc2c(cc1OCCCN1CCCC1)nc(C1CCCC1)n2C [Compound 22]', '> 10 µM');

The record that follows has no IC50 shown yet.
I'd like to know its IC50. The compound in question is CNC1=Nc2cc(C#CCN3CCCC3)c(OC)cc2C12CCC2 [Compound 74]
< 0.1 µM

----------
# studySystem: EHMT1 (Homo sapiens, UniProt Q9H9B1)
# Sequence (Q9H9B1 1-1298): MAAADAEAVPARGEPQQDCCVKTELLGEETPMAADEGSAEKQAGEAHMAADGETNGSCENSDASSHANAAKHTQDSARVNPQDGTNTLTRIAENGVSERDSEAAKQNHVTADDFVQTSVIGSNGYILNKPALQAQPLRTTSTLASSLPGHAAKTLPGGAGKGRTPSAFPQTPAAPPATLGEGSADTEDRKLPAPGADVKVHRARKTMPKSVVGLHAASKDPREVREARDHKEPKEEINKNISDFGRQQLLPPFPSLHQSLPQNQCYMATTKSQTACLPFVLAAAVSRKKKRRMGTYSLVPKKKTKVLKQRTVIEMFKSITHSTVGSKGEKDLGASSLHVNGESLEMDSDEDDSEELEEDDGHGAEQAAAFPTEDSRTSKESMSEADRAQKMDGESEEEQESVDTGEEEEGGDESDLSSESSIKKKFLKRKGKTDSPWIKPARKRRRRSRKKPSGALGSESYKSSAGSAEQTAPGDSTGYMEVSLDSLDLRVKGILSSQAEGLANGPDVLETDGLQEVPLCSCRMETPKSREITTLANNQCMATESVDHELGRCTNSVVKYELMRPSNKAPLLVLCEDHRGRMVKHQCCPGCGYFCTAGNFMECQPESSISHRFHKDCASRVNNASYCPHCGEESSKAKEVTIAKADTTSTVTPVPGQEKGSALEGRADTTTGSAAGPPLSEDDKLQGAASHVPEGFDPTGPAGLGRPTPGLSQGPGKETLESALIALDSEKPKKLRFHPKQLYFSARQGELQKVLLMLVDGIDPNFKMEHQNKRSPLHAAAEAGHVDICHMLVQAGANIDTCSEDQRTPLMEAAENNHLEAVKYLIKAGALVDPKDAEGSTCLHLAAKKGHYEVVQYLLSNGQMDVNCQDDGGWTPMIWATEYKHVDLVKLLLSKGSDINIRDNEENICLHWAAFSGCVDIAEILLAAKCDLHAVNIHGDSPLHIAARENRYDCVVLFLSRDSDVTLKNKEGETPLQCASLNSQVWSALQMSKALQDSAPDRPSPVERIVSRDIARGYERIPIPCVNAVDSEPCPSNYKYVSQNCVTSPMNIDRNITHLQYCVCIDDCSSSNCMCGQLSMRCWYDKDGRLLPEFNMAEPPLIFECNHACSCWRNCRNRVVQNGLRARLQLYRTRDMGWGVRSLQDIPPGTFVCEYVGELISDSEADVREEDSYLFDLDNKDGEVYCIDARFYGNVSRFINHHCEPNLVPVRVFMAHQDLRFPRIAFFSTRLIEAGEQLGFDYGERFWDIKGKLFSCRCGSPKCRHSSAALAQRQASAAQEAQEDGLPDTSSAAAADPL
# assayProcedure: EHMT1 PEP
# Format: biochemical
Measured IC50, listed per entry.

Fill in the recorded IC50 for this molecule, with EHMT1 (Homo sapiens, UniProt Q9H9B1) as test system: "CCn1c(NC)nc2cc(CNCCN3CCCC3)c(OC)cc21"
< 0.1 µM

Fill in the recorded IC50 for this molecule, with EHMT1 (Homo sapiens, UniProt Q9H9B1) as test system: "CNCCCOc1cc2c(cc1OC)C(C)(C)C(N)=N2"
0.1 to 1 µM

Fill in the recorded IC50 for this molecule, with EHMT1 (Homo sapiens, UniProt Q9H9B1) as test system: "COc1cc2c(cc1CNCCN1CCCC1)N=C(NC1CCOCC1)C21CCC1"
1 to 10 µM

Fill in the recorded IC50 for this molecule, with EHMT1 (Homo sapiens, UniProt Q9H9B1) as test system: "NC1=Nc2cc(OCCCN3CCCC3)c(OCC3CCOCC3)cc2C12CCC2"
1 to 10 µM

Fill in the recorded IC50 for this molecule, with EHMT1 (Homo sapiens, UniProt Q9H9B1) as test system: "CNC1=Nc2cc(C#CCN3CCCCC3)c(OC)cc2C12CCC2"
< 0.1 µM

Fill in the recorded IC50 for this molecule, with EHMT1 (Homo sapiens, UniProt Q9H9B1) as test system: "COc1cc2c(cc1OC[C@H](O)CN1CCCC1)nc(NC1CCOCC1)n2C"
1 to 10 µM

Fill in the recorded IC50 for this molecule, with EHMT1 (Homo sapiens, UniProt Q9H9B1) as test system: "CNc1nc2cc(OC[C@H](O)CN3CCC3)c(OC)cc2n1C"
< 0.1 µM

Fill in the recorded IC50 for this molecule, with EHMT1 (Homo sapiens, UniProt Q9H9B1) as test system: "COc1cc2c(cc1OCCCN1CCCC1)nc(C)n2C"
1 to 10 µM

Fill in the recorded IC50 for this molecule, with EHMT1 (Homo sapiens, UniProt Q9H9B1) as test system: "COc1cc2[nH]c(N)nc2cc1OCCCN1CCCC1"
< 0.1 µM

Fill in the recorded IC50 for this molecule, with EHMT1 (Homo sapiens, UniProt Q9H9B1) as test system: "COc1cc2c(cc1OCCCN1CCCC1)nc(N)n2C1CCCC1"
< 0.1 µM

----------
# studySystem: EHMT1 (Homo sapiens)
# assayProcedure: EHMT1 PEP
# Type: biochemical
measuredQuantity: IC50

# annotated cases, reported IC50 shown
INSERT INTO results (chemsmiles, assayvalue) VALUES
  ('CCNC1=Nc2cc(CNCCN3CCC3)c(OC)cc2C12CCC2', '< 0.1 µM'),
  ('COc1cc2c(cc1OCCCN1CCCCC1)N=C(N)C21CCC1', '0.1 to 1 µM'),
  ('COc1cc2c(cc1OCCCN(C)C)N=C(N)C2(C)C', '0.1 to 1 µM');

I'd like to know its IC50. The compound in question is "CNC1=Nc2cc(C#C[C@H](C)N3CCCC3)c(OC)cc2C12CCC2"
< 0.1 µM

I'd like to know its IC50. The compound in question is "COc1cc2c(cc1OCCCN1CCCC1)nc(NC1CCOCC1)n2C"
1 to 10 µM

----------
Measured IC50, listed per entry.
# studySystem: EHMT2 (Homo sapiens, UniProt Q96KQ7)
# Construct: endogenous in cells; host or cells: MDA-MB-231 (ATCC)
# Sequence (Q96KQ7 1-1210): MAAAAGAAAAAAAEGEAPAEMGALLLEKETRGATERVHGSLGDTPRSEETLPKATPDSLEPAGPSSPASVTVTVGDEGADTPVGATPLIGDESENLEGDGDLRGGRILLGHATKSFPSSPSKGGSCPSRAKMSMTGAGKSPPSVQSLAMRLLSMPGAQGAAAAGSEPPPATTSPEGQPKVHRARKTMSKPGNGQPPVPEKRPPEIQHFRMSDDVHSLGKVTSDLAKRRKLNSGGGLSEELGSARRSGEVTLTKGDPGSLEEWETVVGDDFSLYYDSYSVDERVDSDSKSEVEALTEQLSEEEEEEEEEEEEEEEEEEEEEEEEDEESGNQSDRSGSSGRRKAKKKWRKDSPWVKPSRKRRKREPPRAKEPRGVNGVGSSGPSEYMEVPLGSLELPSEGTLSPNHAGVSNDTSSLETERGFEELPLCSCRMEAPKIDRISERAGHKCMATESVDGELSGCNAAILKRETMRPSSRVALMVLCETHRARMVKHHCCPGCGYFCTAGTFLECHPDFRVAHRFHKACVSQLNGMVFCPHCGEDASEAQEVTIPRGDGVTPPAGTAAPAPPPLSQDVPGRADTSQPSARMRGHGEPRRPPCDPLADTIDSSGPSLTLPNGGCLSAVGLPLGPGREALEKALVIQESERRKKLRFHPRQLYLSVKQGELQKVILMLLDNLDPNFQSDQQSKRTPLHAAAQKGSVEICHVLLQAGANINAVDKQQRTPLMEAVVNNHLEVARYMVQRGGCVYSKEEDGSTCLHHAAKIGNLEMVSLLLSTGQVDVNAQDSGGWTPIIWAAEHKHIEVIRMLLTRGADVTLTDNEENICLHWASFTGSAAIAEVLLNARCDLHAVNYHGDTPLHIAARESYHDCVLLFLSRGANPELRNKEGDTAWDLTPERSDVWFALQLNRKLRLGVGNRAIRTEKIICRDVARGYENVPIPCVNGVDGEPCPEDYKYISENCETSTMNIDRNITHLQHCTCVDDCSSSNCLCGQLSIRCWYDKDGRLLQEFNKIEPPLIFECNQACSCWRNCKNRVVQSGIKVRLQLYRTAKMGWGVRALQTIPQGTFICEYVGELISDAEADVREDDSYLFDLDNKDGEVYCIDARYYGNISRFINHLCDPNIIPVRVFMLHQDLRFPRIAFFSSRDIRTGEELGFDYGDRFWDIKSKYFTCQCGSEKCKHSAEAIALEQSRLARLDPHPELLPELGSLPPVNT
# assayProcedure: MDA-MB-231 H3K9me2 in-cell Western assay (EHMT2 ICW)
# Type: cell-based
# conditionLabel: MDA-MB-231 cells, H3K9me2 in-cell Western; read-out: EHMT2 ICW (IC50 μM)

INSERT INTO results (compound, assayvalue) VALUES
  ('CNC1=Nc2cc(C#CC(C)N3CCCCC3)c(OC)cc2C12CCC2 (stereo not drawn) [Compound 92]', '0.1 to 1 µM'),
  ('CNc1nc2cc(CNCCN3CCCC3)c(Cl)cc2n1C(C)C [Compound 138]', '1 to 10 µM');

The record that follows has no IC50 shown yet.
I'd like to know its IC50. The compound in question is COc1cc2c(cc1OCCCN1CCCC1)nc(N)n2C [Compound 2]
0.1 to 1 µM

FYI, the data here is from patent US20220274961A1.
